targetSystem: WT A/M2 proton channel (Influenza A virus, UniProt P0DOF5)
Sequence (P0DOF5 whole entry, looked up): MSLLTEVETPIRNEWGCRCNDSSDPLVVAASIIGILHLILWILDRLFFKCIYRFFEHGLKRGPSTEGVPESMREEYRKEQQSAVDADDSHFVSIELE
Type: cell-based
runConditions: TEVC
attributeMeasured: activity against WT A/M2 channel (in words)

{"columns": ["compound", "targetSystem", "experimentalValue"],
 "data": [
  ["NN1C(=O)CC2(CCCCC2)CC1=O", "WT A/M2 proton channel (Influenza A virus, UniProt P0DOF5)", "only weakly active"],
  ["O=C1CC2(CCCCC2)CC(=O)N1", "WT A/M2 proton channel (Influenza A virus, UniProt P0DOF5)", "only weakly active"]
]}
